Molecular target: T1, Bdf1 bromodomain 1 (GST-tagged, WT) (Saccharomyces cerevisiae (strain ATCC …, UniProt P35817))
T1 chain: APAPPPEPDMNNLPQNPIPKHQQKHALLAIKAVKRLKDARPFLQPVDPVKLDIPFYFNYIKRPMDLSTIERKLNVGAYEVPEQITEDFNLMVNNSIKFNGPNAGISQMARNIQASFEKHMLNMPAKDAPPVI
Assay: histone peptide array probed with recombinant GST-bromodomain, signal normalised to myc peptide control
Non-standard residues stand in square brackets, D forms with d. Primed or numbered codes have the meaning given here. No end group written: not given here. Me2s″ = symmetric dimethylarginine (Rme2s); Arg(Me2a) = CN(C)C(=N)NCCC[C@H](N)C(=O)O; Lys(Me3) = C[N+](C)(C)CCCC[C@H](N)C(=O)O; Arg(Me2s) = CN=C(NC)NCCC[C@H](N)C(=O)O; Lys(Me2) = CN(C)CCCC[C@H](N)C(=O)O; pS = N[C@@H](COP(=O)(O)O)C(=O)O; Lys(Me) = CNCCCC[C@H](N)C(=O)O
measure: binding score

Example entries and their recorded answers appear below.
ARTKQTARKSTGGKAPRKQ (A Rme2s T Kac Q T A Rme2s Kme2 S T G G K A P R K Q): 0
ARTKQTARKSTGGKAPRKQ (A R T K Q T A R Kac S T G G Kac A P R K Q): 0.108
PRKQLATKAA[Arg(Me2a)][Lys(Me2)][pS]APATGG: 0
ARTKQTARKSTGGKAPRKQ (A R T K Q T A R Kme1 S T G G K A P R K Q): 0
ARTKQTARKSTGGKAPRKQ (A R T Kme2 Q T A Rme2a Kac S T G G K A P R K Q): 0.0228
PRKQLATKAARK(Me)[pS]APATGG: 0.0151
SGRGKGGKGLGKGGAKRHR (S G R G K G G K G L G K G G A Kac R H R): 0
ARTKQTARKSTGGKAPRKQ (A Rme2a T Kme1 Q T A Rme2s Kac S T G G K A P R K Q): 0.00717
ARTKQTARKSTGGKAPRKQ (A R T K Q T A R Kme1 S T G G Kac A P R K Q): 0.0251
ARTKQTARKSTGGKAPRKQ (A Rme2s T Kme1 Q T A Rme2a Kme2 S T G G K A P R K Q): 0.00502

P: A[Arg(Me2s)]TKQTARKSTGGKAPRKQ
Q: ARTKQTARKSTGGKAPRKQ (A Rme2s T Kac Q T A Rme2s Kme3 S T G G K A P R K Q)
R: A[Arg(Me2s)]TK(Ac)QTA[Arg(Me2a)][Lys(Me)]STGGKAPRKQ
S: SGRGKGGKGLGKGGAKRHR (S G R G Kac G G Kac G L G Kac G G A Kac R H R)
Problem: Arrange the 4 binders by rising binding score, starting with the smallest. Answer format: list of labels, ordered as asked.
Solution: R, Q, P, S
(R: 0.00161, Q: 0.00538, P: 0.0111, S: 0.561)

P: SGRGKGGKGLGKGGAKRHR (S G R G K G G Kac G L G Kac G G A K R H R)
Q: ARTKQTARKSTGGKAPRKQ (A Rme2a T Kme2 Q T A Rme2a K S T G G K A P R K Q)
R: A[Arg(Me2a)]T[Lys(Me3)]QTA[Arg(Me2s)][Lys(Me)]STGGKAPRKQ
Problem: Order field: binding score | Direction: descending (largest first) Answer format: list of labels, ordered as asked.
Solution: P, Q, R

A: ARTKQTARKSTGGKAPRKQ (A Rme2s T Kme3 Q T A Rme2s Kme1 S T G G K A P R K Q)
B: ARTK(Me3)QTARKSTGGKAPRKQ
C: SGRGKGGKGLGKGGAKRHR (S G R G K G G K G L G Kac G G A K R H R)
Problem: Arrange the 3 binders by rising binding score, starting with the smallest. Answer format: list of labels, ordered as asked.
Solution: B, A, C

a: A[Arg(Me2a)]T[Lys(Me3)]QTA[Arg(Me2a)][Lys(Me3)]STGGKAPRKQ
b: ARTKQTARKSTGGKAPRKQ (A R T Kac Q T A Rme2a Kme3 S T G G K A P R K Q)
c: A[Arg(Me2s)]TK(Ac)QTARKSTGGKAPRKQ
d: A[Arg(Me2a)]TK(Ac)QTARKSTGGKAPRKQ
Problem: Arrange the 4 binders by rising binding score, starting with the smallest. Answer format: list of labels, ordered as asked.
Solution: a, d, c, b

a: AR(Me2s″)TK(Me)QTARK(Me)STGGKAPRKQ
b: SGRGK(Ac)QGGKARAK(Ac)AKSRSS [H2a 1-19]
Problem: Given the listed items, does a or b have the lesser reported binding score? Your choice should be expressed through its label.
Solution: a
(a: 0, b: 0.0151)
